Experiment: Inhibition of calcium ionophore (A-23187)-stimulated LTB4 formation in human neutrophil assay
Assignment: determine reported pIC50 for the given molecules.
One number for each entry, as −log10 of the molar value.

Some solved cases for reference:
C/C(=N\O[C@H](c1ccc(OCc2ccc3ccccc3n2)cc1)C1CCCCC1)C(=O)O = 8.10
O=C(O)/C=N/OC(c1ccc(OCc2nc3cc(F)ccc3s2)cc1)C1CCCCC1 (stereo not drawn) = 7.06
CC(C)(CC(O/N=C/C(=O)O)c1ccc(OCc2ccc3ccccc3n2)cc1)c1ccccc1 (stereo not drawn) = 8.00
CC(C)(C)Sc1c(CC(C)(C)C(=O)O)n(Cc2ccc(Cl)cc2)c2ccc(OCc3ccc4ccccc4n3)cc12 = 8.10
C/C(=N\OC(c1cc(OCc2ccc3ccccc3n2)on1)C1CCCCC1)C(=O)O (stereo not drawn) = 6.31

Kindly give each listed record's pIC50.
1. O=C(O)/C=N/OC(c1ccc(OCc2nc3ccccc3s2)cc1)C1CCCCC1 (stereo not drawn)
2. C/C(=N\OC(c1ccc(OCc2nc3ccccc3s2)cc1Cl)C1CCCCC1)C(=O)O (stereo not drawn)
3. C/C(=N\OC(c1ccc(OCc2nc3cc(F)ccc3s2)cc1Cl)C1CCCCC1)C(=O)O (stereo not drawn)
4. CC/C(=N\OC(c1ccc(OCc2ccc3ccccc3n2)cc1)C1CCCCC1)C(=O)O (stereo not drawn)
5. O=C(O)/C=N/OC(c1ccc(OCc2ccc3ccccc3n2)cc1)C1CCCC1 (stereo not drawn)
6. C/C(=N\OC(c1ccc(OCc2ccc3ccccc3n2)cc1Cl)C1CCCCC1)C(=O)O (stereo not drawn)
7. C/C(=N\OC(CC1CCCCC1)c1ccc(OCc2ccc3ccccc3n2)cc1)C(=O)O (stereo not drawn)

Response line:
[7.22, 7.55, 7.32, 7.52, 7.52, 7.85, 7.54]

====

Assay: Inhibition of calcium ionophore (A-23187)-stimulated LTB4 formation in human neutrophil assay
Each record gets a class by IC50: LOW (below 20 nM), MID (20 nM to below 50 nM), HIGH (50 nM or more)

For orientation, consider the following solved cases.
O=C(O)/C=N/OC(c1ccc(OCc2ccc3ccccc3n2)cc1)C1CCCCCC1 (stereo not given) = LOW
C/C(=N\OC(c1ccc(OCc2ccc3ccccc3n2)cc1)c1cccs1)C(=O)O (stereo not given) = MID

Prompt line: Exercise: read the entry O=C(O)/C=N/OC(c1ccc(-c2ccc3ccccc3n2)cc1)C1CCCCC1 (stereo not given) and state which class it falls under.
Response line: HIGH

Prompt line: Same lookup for C/C(=N\OC(CC(C)(C)c1ccccc1)c1ccc(OCc2ccc3ccccc3n2)cc1)C(=O)O (stereo not given) , please.
Response line: MID

Prompt line: Same lookup for CC(C)(C)SC/C(=N\OC(c1ccc(OCc2ccc3ccccc3n2)cc1)C1CCCCC1)C(=O)O (stereo not given) , please.
Response line: HIGH

Prompt line: Same lookup for C/C(=N\OC(c1cc2ccc(OCc3ccc4ccccc4n3)cc2s1)C1CCCCC1)C(=O)O (stereo not given) , please.
Response line: MID

Prompt line: Same lookup for CC(/C=C/C(=O)O)=N\OC(c1ccc(OCc2ccc3ccccc3n2)cc1)C1CCCCC1 (stereo not given) , please.
Response line: MID

Prompt line: Same lookup for O=C(O)/C=N/OC(c1ccc(OCc2nc3cc(F)ccc3s2)cc1Cl)C1CCCCC1 (stereo not given) , please.
Response line: LOW

Prompt line: Same lookup for C/C(CCCC(=O)O)=N\OC(c1ccc(OCc2ccc3ccccc3n2)cc1)C1CCCCC1 (stereo not given) , please.
Response line: HIGH

Prompt line: Same lookup for O=C(O)/C=N/OC(c1ccc(OCc2nc3ccccc3o2)cc1)C1CCCCC1 (stereo not given) , please.
Response line: HIGH

Prompt line: Same lookup for O=C(O)/C(=N/OC(c1ccc(OCc2ccc3ccccc3n2)cc1)C1CCCCC1)c1ccccc1 (stereo not given) , please.
Response line: MID

Prompt line: Same lookup for O=C(O)[C@@H](c1ccc(OCc2ccc3ccccc3n2)cc1)C1CCCC1 , please.
Response line: HIGH

Prompt line: Same lookup for Cc1nc(COc2ccc(C(O/N=C/C(=O)O)C3CCCCC3)cc2)cs1 (stereo not given) , please.
Response line: HIGH

Prompt line: Same lookup for C/C(=N\OC(CCCc1ccc(F)cc1)c1ccc(OCc2ccc3ccccc3n2)cc1)C(=O)O (stereo not given) , please.
Response line: LOW

Prompt line: Same lookup for O=C(O)/C=N/OC(c1ccc(OCc2cnc3ccccc3n2)cc1)C1CCCCC1 (stereo not given) , please.
Response line: MID

Prompt line: Same lookup for C/C(=N\OC(c1ccc(OCc2ccc3ccccc3n2)cc1)C1CCCC1)C(=O)O (stereo not given) , please.
Response line: LOW

Prompt line: Same lookup for O=C(O)/C=N/OC(c1ccc(OCc2nc(-c3ccccc3)cs2)cc1)C1CCCCC1 (stereo not given) , please.
Response line: MID

====

Assignment: determine reported pIC50 for the given compounds.
Assay: Inhibition of calcium ionophore (A-23187)-stimulated LTB4 formation in human neutrophil assay
One number for each entry, as −log10 of the molar value.

Some solved cases for reference:
O=C(O)/C=N/OC(c1ccc(Oc2ccc3ccccc3n2)cc1)C1CCCCC1 (stereo unspecified) = 6.80
O=C(O)CSC(CCCc1ccc(Cl)cc1)c1ccc(OCc2ccc3ccccc3n2)cc1 (stereo unspecified) = 8.15
C/C(=N\OC(c1ccc(OCc2ccc3ccccc3n2)cc1)C1CCCCCC1)C(=O)O (stereo unspecified) = 7.89
O=C(O)/C=N/OC(c1ccc(OCc2nc3ccccc3s2)cc1Cl)C1CCCCC1 (stereo unspecified) = 7.55
C/C(=N\O[C@@H](c1ccc(OCc2ccc3ccccc3n2)cc1)C1CCCCC1)C(=O)O = 7.15

Then there is this compound:
Prompt line: Quick one: pIC50 for O=C(O)/C(=N/OC(c1ccc(OCc2ccc3ccccc3n2)cc1)C1CCCCC1)c1cccs1 (stereo unspecified) ?
Response line: 7.68

====

Assignment: determine reported IC50 for the given molecules.
Assay: Inhibition of calcium ionophore (A-23187)-stimulated LTB4 formation in human neutrophil assay
One number for each entry, in nM.

Some solved cases for reference:
C/C(=N\OC(Cc1ccc(OCc2ccc3ccccc3n2)cc1)C1CCCCC1)C(=O)O (stereo not drawn) = 50
C/C(=N\OC(c1ccc(OCc2ccc3ccccc3n2)cc1)C1C2CC3CC(C2)CC1C3)C(=O)O (stereo not drawn) = 20

Then there is this molecule:
Prompt line: Quick one: IC50 for COc1cc(OCc2ccc3ccccc3n2)ccc1C(O/N=C/C(=O)O)C1CCCCC1 (stereo not drawn) ?
Response line: 20
